# EXPERIMENTAL SYSTEM: Human CD73 (Homo sapiens, UniProt P21589)
# Construct: purchased R&D Systems; host or cells: CHO cells
# Sequence (P21589 27-549): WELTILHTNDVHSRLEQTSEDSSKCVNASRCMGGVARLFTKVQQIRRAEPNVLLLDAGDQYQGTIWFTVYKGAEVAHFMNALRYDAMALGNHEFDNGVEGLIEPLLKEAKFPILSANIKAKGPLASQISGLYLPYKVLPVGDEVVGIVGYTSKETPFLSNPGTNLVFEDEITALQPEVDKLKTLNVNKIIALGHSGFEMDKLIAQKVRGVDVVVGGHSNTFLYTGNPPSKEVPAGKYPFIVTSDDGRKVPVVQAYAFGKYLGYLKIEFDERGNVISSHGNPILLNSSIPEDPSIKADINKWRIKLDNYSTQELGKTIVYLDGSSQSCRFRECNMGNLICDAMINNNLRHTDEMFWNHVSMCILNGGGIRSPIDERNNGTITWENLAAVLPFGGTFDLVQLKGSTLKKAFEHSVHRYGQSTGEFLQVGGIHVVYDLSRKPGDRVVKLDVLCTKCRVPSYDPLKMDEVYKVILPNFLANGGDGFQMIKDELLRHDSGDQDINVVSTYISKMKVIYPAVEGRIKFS
# ASSAY REMARKS: CD73 Enzyme Assay
# Format: biochemical
# MEASUREMENT SETUP: 0.25 nM hCD73, 25 μM AMP, kinetic read at 360 nm; read-out: CD73 Enzyme Assay IC50
IC50 values for the compounds below.

Here are 3 compounds together with their reported answers.
CC(C)(C)C(=O)OCOP(=O)(O)COC[C@H]1O[C@@H](n2ccc3c(NC4CCCC4)nc(Cl)nc32)[C@H](O)[C@@H]1O	< 10 nM
COC(=O)OCOP(=O)(O)COC[C@H]1O[C@@H](n2ccc3c(NC4CCCC4)nc(Cl)nc32)[C@H](O)[C@@H]1O	10 to 100 nM
N#Cc1cccc(CNc2ncnc3c2ncn3[C@@H]2O[C@H](COCP(=O)(O)O)[C@@H](O)[C@H]2O)c1	> 1000 nM

**Q:** Quickly give me recorded IC50 for `N#Cc1nc(NCc2ccccc2)c2ncn([C@@H]3O[C@H](COCP(=O)(O)O)[C@@H](O)[C@H]3O)c2n1`
**A:** < 10 nM

**Q:** For the compound O=P(O)(O)COC[C@H]1O[C@@H](n2cnc3c(NC4CCc5ccccc54)ncnc32)[C@H](O)[C@@H]1O (stereo partly shown) , give its reported IC50.
**A:** 100 to 1000 nM

**Q:** Give IC50 for `O=P(O)(O)COC[C@H]1O[C@@H](n2ccc3c(NC4CCOCC4)nc(Cl)nc32)[C@H](O)[C@@H]1O`
**A:** 10 to 100 nM

**Q:** Please give the documented IC50 of `O=P(O)(O)COC[C@H]1O[C@@H](n2ccc3c(NC4CCCCC4)nc(Cl)nc32)[C@H](O)[C@@H]1O`
**A:** < 10 nM

====

# EXPERIMENTAL SYSTEM: Human CD73 (Homo sapiens)
# Construct: purchased R&D Systems; host or cells: CHO cells
# ASSAY REMARKS: CD73 Enzyme Assay
# Format: biochemical
# MEASUREMENT SETUP: 0.25 nM hCD73, 25 μM AMP, kinetic read at 360 nm; read-out: CD73 Enzyme Assay IC50
Each entry below lists one item and its recorded IC50 value.

**Q:** Give IC50 for this entry on Human CD73 (Homo sapiens): O=P(O)(O)COC[C@H]1O[C@@H](n2cnc3c(NCc4ccncc4)ncnc32)[C@H](O)[C@@H]1O [Compound 28]
**A:** > 1 µM

**Q:** Output reported IC50 of the molecule CCc1nc(NC(C)C)c2ncn([C@@H]3O[C@H](COCP(=O)(O)O)[C@@H](O)[C@H]3O)c2n1 [Compound 41] on Human CD73 (Homo sapiens).
**A:** > 1 µM

**Q:** Provide IC50, tested on Human CD73 (Homo sapiens), for O=P(O)(O)COC[C@H]1O[C@@H](n2cnc3c(NCc4ccccn4)ncnc32)[C@H](O)[C@@H]1O [Compound 19] .
**A:** > 1 µM

**Q:** Provide IC50, system Human CD73 (Homo sapiens), entry O=P(O)(O)COC[C@H]1O[C@@H](n2ccc3c(NC4CCCC4)nc(C#CCO)nc32)[C@H](O)[C@@H]1O [Compound 243]
**A:** < 0.01 µM
